- studySystem: Inhibitor of nuclear factor kappa-B kinase subunit epsilon (Homo sapiens)
- procedureText: Inhibition of human IKBKE (1 to 716 residues) assessed as enzyme activity at 1 uM using 33P ATP by radioactive filter binding assay
- Parameters: scale not given: the % may be the effect or the level left
reportedProperty: Activity (%)

# molecule, unitsOfMeasure, reportedMeasurement
measured = [
    ("CCCCc1cc(-c2c[nH]c3ncc(-c4cnn(C5CCNCC5)c4)cc23)nc(N)n1", "%", -91),
]

A. Nc1nccc(-c2c[nH]c3ncccc23)n1 [MERIOLIN 1]
B. CCc1cc(-c2c[nH]c3ncc(-c4cnn(C5CCNCC5)c4)cc23)nc(N)n1
C. CCCCc1cc(-c2c[nH]c3ncccc23)nc(N)n1
List the 3 entries from lowest Activity to highest Activity value. Labels, requested order. B, C, A
(B: -78%, C: -48%, A: -22%)

====

- studySystem: Serine/threonine-protein kinase Sgk1 (Homo sapiens) (UniProt O00141)
- Sequence (whole entry): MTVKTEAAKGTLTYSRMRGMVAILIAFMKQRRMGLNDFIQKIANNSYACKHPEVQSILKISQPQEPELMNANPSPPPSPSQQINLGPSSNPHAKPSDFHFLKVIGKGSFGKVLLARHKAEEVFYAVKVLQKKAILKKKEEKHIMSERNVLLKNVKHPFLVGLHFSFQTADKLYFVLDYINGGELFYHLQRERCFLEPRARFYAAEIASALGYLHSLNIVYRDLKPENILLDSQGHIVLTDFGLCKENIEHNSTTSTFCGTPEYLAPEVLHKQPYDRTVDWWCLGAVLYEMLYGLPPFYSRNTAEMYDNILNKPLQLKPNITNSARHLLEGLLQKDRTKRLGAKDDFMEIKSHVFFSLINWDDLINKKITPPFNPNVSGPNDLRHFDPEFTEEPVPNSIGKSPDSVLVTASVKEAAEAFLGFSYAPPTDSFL
- procedureText: Inhibition of human SGK assessed as enzyme activity at 1 uM using 33P ATP by radioactive filter binding assay
- Parameters: scale not given: the % may be the effect or the level left
reportedProperty: Activity (%)

I. CCc1cc(-c2c[nH]c3ncc(-c4cnn(C5CCNCC5)c4)cc23)nc(N)n1
II. Nc1nccc(-c2c[nH]c3ncccc23)n1 [MERIOLIN 1]
I'm curious whether I or II has the smaller Activity number. Which is it? Give the label of your selection. I
(I: -78%, II: -42%)

1. CCCCc1cc(-c2c[nH]c3ncc(-c4cnn(C5CCNCC5)c4)cc23)nc(N)n1
2. CCCCc1cc(-c2c[nH]c3ncccc23)nc(N)n1
I'm curious whether 1 or 2 has the smaller Activity number. Which is it? Give the label of your selection. 1
(1: -78%, 2: -12%)

====

- studySystem: Mitogen-activated protein kinase 8 (Homo sapiens)
- procedureText: Inhibition of human JNK1alpha1 assessed as enzyme activity at 1 uM using 33P ATP by radioactive filter binding assay
- Parameters: scale not given: the % may be the effect or the level left
reportedProperty: Activity (%)

Here's what some known entries look like.
# smilesStructure, studySystem, Activity [%]
measured = [
    ("CCCCc1cc(-c2c[nH]c3ncc(-c4cnn(C5CCNCC5)c4)cc23)nc(N)n1", "Mitogen-activated protein kinase 8 (Homo sapiens)", -41),
    ("CCCCc1cc(-c2c[nH]c3ncccc23)nc(N)n1", "Mitogen-activated protein kinase 8 (Homo sapiens)", -6),
]

1. Nc1nccc(-c2c[nH]c3ncccc23)n1
2. CCc1cc(-c2c[nH]c3ncc(-c4cnn(C5CCNCC5)c4)cc23)nc(N)n1
Kindly identify which of 1 and 2 has the larger recorded Activity value. Give the label of your selection. 1

====

- Species on record: Homo sapiens
- procedureText: Selectivity ratio of IC50 for PI3K alpha (unknown origin) to IC50 for human His6-tagged PDK1
reportedProperty: Ratio IC50

Here's what some known entries look like.
# smilesStructure, reportedMeasurement
measured = [
    ("CCc1cc(-c2c[nH]c3ncc(-c4cnn(CC(C)C)c4)cc23)nc(N)n1", 42),
    ("CCCCc1cc(-c2c[nH]c3ncc(-c4cnn(C5CCNCC5)c4)cc23)nc(N)n1", 65),
]

P. CCc1cc(-c2c[nH]c3ncc(-c4cnn(CCN(C)C)c4)cc23)nc(N)n1
Q. CCc1cc(-c2c[nH]c3ncc(-c4cn[nH]c4)cc23)nc(N)n1
Kindly identify which of P and Q has the larger recorded Ratio IC50 value. Give the label of your selection. Q

====

- studySystem: UniProtKB P07947
- Sequence (P07947 2-543 limits assumed): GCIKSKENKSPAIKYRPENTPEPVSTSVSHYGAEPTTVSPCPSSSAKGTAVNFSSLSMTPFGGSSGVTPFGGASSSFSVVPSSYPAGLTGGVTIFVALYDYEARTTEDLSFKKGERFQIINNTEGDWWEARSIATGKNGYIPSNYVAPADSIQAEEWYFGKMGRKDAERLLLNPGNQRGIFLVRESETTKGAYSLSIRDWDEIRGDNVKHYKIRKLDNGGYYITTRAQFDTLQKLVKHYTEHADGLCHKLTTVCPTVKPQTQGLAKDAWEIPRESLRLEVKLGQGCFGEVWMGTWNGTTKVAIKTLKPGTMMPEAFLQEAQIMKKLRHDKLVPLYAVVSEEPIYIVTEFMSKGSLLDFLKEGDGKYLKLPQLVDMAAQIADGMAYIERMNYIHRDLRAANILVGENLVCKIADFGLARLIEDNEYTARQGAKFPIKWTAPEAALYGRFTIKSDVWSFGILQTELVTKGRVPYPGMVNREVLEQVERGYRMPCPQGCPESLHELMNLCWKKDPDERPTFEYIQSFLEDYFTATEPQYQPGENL
- procedureText: Inhibition of human YES1 (1 to 543 residues) assessed as enzyme activity at 1 uM using 33P ATP by radioactive filter binding assay
- Parameters: scale not given: the % may be the effect or the level left
reportedProperty: Activity (%)

Here's what some known entries look like.
# compound, Activity (%)
data = [
    ("CCCCc1cc(-c2c[nH]c3ncc(-c4cnn(C5CCNCC5)c4)cc23)nc(N)n1", -78),
    ("CCc1cc(-c2c[nH]c3ncc(-c4cnn(C5CCNCC5)c4)cc23)nc(N)n1", -46),
]

P. CCCCc1cc(-c2c[nH]c3ncccc23)nc(N)n1
Q. Nc1nccc(-c2c[nH]c3ncccc23)n1 [MERIOLIN 1]
I'm curious whether P or Q has the smaller Activity number. Which is it? Give the label of your selection. P
(P: -21%, Q: 2%)

====

- studySystem: Ribosomal protein S6 kinase alpha-5 (Homo sapiens)
- procedureText: Inhibition of human MSK1 (2 to 802 residues) assessed as enzyme activity at 1 uM using 33P ATP by radioactive filter binding assay
- Design: scale not given: the % may be the effect or the level left
reportedProperty: Activity (%)

# compound, Activity (%)
measured = [
    ("CCCCc1cc(-c2c[nH]c3ncc(-c4cnn(C5CCNCC5)c4)cc23)nc(N)n1", -56),
    ("CCCCc1cc(-c2c[nH]c3ncccc23)nc(N)n1", -46),
    ("CCc1cc(-c2c[nH]c3ncc(-c4cnn(C5CCNCC5)c4)cc23)nc(N)n1", -43),
    ("Nc1nccc(-c2c[nH]c3ncccc23)n1 [MERIOLIN 1]", -49),
]

====

- procedureText: Intrinsic clearance in human liver microsomes
- Type: ADME
- particulars: read-out: CLH
reportedProperty: microsomal CLint

Here's what some known entries look like.
# smilesStructure, reportedProperty, reportedMeasurement
data = [
    ("CCc1cc(-c2c[nH]c3ncc(-c4cnn(CC(C)C)c4)cc23)nc(N)n1", "microsomal CLint", "> 55 µL/min/mg"),
    ("CCc1cc(-c2c[nH]c3ncc(-c4cnn(CCN(C)C)c4)cc23)nc(N)n1", "microsomal CLint", "< 10 µL/min/mg"),
    ("CCc1cc(-c2c[nH]c3ncc(-c4cn[nH]c4)cc23)nc(N)n1", "microsomal CLint", "52 µL/min/mg"),
]

Input CCc1cc(-c2c[nH]c3ncc(-c4cnn(C)c4)cc23)nc(N)n1 , output reported microsomal CLint. > 55 µL/min/mg

Input CCCCc1cc(-c2c[nH]c3ncc(-c4cnn(C5CCNCC5)c4)cc23)nc(N)n1 , output reported microsomal CLint. < 10 µL/min/mg

Input CCc1cc(-c2c[nH]c3ncc(-c4cnn(C5CCNCC5)c4)cc23)nc(N)n1 , output reported microsomal CLint. < 10 µL/min/mg

====

- studySystem: Dual specificity tyrosine-phosphorylation-regulated kinase 3 (Homo sapiens)
- Sequence (whole entry): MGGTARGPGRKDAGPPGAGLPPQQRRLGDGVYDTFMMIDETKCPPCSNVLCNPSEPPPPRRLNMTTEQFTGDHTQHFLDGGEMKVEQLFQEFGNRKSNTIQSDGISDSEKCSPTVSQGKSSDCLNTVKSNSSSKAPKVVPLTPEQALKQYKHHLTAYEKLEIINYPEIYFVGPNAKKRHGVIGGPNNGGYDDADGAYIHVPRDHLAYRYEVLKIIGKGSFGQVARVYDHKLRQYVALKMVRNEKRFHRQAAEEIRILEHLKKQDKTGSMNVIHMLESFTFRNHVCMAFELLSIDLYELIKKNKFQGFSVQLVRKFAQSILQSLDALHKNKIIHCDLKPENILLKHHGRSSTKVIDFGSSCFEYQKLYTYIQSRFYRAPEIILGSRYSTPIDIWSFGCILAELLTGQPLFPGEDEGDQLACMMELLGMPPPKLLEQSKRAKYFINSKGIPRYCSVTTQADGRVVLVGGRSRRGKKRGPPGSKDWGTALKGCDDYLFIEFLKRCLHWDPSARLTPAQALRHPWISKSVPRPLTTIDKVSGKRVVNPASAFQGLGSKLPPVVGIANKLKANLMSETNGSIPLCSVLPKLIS
- procedureText: Inhibition of human DYRK3 (1 to 588 residues) assessed as enzyme activity at 1 uM using 33P ATP by radioactive filter binding assay
- Design: scale not given: the % may be the effect or the level left
reportedProperty: Activity (%)

# compound, unitsOfMeasure, Activity
rows = [
    ("CCCCc1cc(-c2c[nH]c3ncccc23)nc(N)n1", "%", -80),
    ("CCc1cc(-c2c[nH]c3ncc(-c4cnn(C5CCNCC5)c4)cc23)nc(N)n1", "%", -87),
    ("Nc1nccc(-c2c[nH]c3ncccc23)n1 [MERIOLIN 1]", "%", -82),
    ("CCCCc1cc(-c2c[nH]c3ncc(-c4cnn(C5CCNCC5)c4)cc23)nc(N)n1", "%", -84),
]

Reference source for all entries: ChEMBL document CHEMBL3813616
